src = ChEMBL document CHEMBL1201862

Tested on: RXF 393
Experiment: NCI tumour cell line growth inhibition, 48 h
Active and inactive are the calls of the source. No stated cut-off is given here; in the data, active = GI50 up to about 1.1 µM and inactive = higher.
reportedProperty: GI50

> print(dat)
                                    compound  studytarget  reportedproperty               result
 1  CC1(C)CCc2cc3c(cc2O1)OCC1c2cc4c(cc2OC31)OCO4 (configuration not stated)      RXF 393              GI50  > 100 µM (inactive)
 2          Nc1nc(Cl)c(C=O)c(NCC2(CO)CCC2)n1      RXF 393              GI50   17.8 µM (inactive)
 3  CCN1C(c2ccccc2)=CC(c2ccccc2)(C(Cl)(Cl)Cl)C=C1c1ccccc1      RXF 393              GI50   17.5 µM (inactive)
 4  OC1CCN2Cc3ccccc3N=C12 (configuration not stated)      RXF 393              GI50  > 100 µM (inactive)
 5  NC(=O)C1N=NSC1NC(=O)c1ccc([N+](=O)[O-])cc1 (configuration not stated)      RXF 393              GI50   43.5 µM (inactive)
 6  COC(=O)C(NC(=O)CNC(=O)CSc1nnc(COc2ccc(Cl)cc2)n1-c1ccccc1)C(C)C (configuration not stated)      RXF 393              GI50   18.1 µM (inactive)
 7  CC(C)(C)OC1=C(OC(C)(C)C)C(O)(c2ccc(Cl)cc2)C1=O (configuration not stated)      RXF 393              GI50  > 100 µM (inactive)
 8            O=C(O)CN1CCNCCN(CC(=O)O)CCNCC1      RXF 393              GI50  > 100 µM (inactive)
 9  COc1cc2nc(-c3c(F)cccc3F)n(Cc3c(F)cccc3F)c2cc1Cc1c(F)cccc1F      RXF 393              GI50   1.55 µM (inactive)
10  C=C(C)C(=O)O[C@H]1[C@H]2[C@H](OC(=O)[C@H]2C)[C@H](O)[C@@H](C)[C@@H]2C=CC(=O)[C@]21C      RXF 393              GI50   1.22 µM (inactive)
11            CN(C)c1c([O-])c(=[N+](C)C)c1=O      RXF 393              GI50  > 100 µM (inactive)
12  C/C=C/C=N/N(C(=O)c1cc([N+](=O)[O-])cc([N+](=O)[O-])c1)C1=NN=C(c2ccccc2)C(c2ccccc2)N1 (configuration not stated)      RXF 393              GI50  > 100 µM (inactive)

----------
Test system: T47D
Test: NCI tumour cell line growth inhibition, 48 h
Active and inactive are the calls of the source. No stated cut-off is given here; in the data, active = GI50 up to about 1.1 µM and inactive = higher.
Possible outcomes: active, inactive

> print(dat)
                                    compound     label
 1  COc1ccc(C2=C3SC=c4ccccc4=C3ON=C2c2ccccc2)cc1  inactive
 2  CC(=O)N1OC(C)CC1Nc1ccc(Br)cc1 (centres undefined)  inactive
 3  CC(C)(CN1CCCCC1)C(/C=C/c1ccc(Cl)c(Cl)c1)=N\NC(=O)N/N=C(/C=C/c1ccc(Cl)c(Cl)c1)C(C)(C)CN1CCCCC1  inactive
 4              CC(C)=CCOC(=O)C(C)=[N+]=[N-]  inactive
 5            COc1ccccc1NC(=S)N/N=C/c1ccccn1    active
 6   CC1=NN(c2nc(N)nc(CN3CCOCC3)n2)C(C)(C)C1  inactive
 7  CN(C)Cc1cc(C(=O)/C=C/c2cccc(Cl)c2)cc(CN(C)C)c1O  inactive
 8  CC(C(=O)COCc1ccccc1)P1(=O)OC(C)(C)CN1C(C)(C)C (centres undefined)  inactive
 9  COc1ccc(N2C(=O)c3c4c(c5c([nH]c6ncccc65)c3C2=O)CCC(C(C)(C)C)C4)cc1 (centres undefined)  inactive
10  COC(=O)c1ccc2c(c1)C(NC(C)=O)CCc1cc(OC)c(OC)c(OC)c1-2 (centres undefined)  inactive
11  COc1ccc(OC)c2c1C=C[C@H](C1(C)SCCS1)C2C(C)=O (some centres undefined)  inactive
12  CC(C)OP(=O)(OC(C)C)c1ccc2c(c1)OCCOCCOCCOCCO2  inactive
13               CO/C(N)=C(C#N)/N=C/c1cccnc1  inactive
14  Cc1ccc(C2(c3ccc(F)cc3)OC(=O)c3ccccc32)c(O)c1 (centres undefined)  inactive
